Source of measurements: ChEMBL document CHEMBL1687862

- tested system: Tyrosinase (Agaricus bisporus) (UniProt O42713)
- Sequence (O42713 whole entry): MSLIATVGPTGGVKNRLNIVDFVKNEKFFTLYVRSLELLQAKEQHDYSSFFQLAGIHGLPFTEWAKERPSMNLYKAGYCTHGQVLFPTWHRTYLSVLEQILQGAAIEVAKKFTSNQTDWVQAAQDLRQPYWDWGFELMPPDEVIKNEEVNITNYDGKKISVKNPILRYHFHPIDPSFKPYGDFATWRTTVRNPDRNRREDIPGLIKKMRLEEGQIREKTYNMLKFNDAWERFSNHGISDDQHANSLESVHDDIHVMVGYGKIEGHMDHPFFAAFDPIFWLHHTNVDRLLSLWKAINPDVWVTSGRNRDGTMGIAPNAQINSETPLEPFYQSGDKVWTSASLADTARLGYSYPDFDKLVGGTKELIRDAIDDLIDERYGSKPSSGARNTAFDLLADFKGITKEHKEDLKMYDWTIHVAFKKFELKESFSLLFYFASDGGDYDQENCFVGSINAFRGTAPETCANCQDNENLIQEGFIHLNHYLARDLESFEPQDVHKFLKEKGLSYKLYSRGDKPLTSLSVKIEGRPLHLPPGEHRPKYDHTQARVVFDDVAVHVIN
- test summary: Inhibition of mushroom tyrosinase at 100 uM preincubated for 10 mins before addition of 1.7 mM L-tyrosine measured after 20 mins by spectrophotometric method
inhibition values by entry
Output spec: scalar in %, unitless text.

Previously resolved entries follow.
O=C1C[C@@H](c2ccc(O)cc2)Oc2cc(O)cc(O)c21 = 2.8
CC(C)=CCc1cccc([C@@H]2CC(=O)c3c(O)cc(O)c(CC=C(C)C)c3O2)c1O = 87.8
COc1ccc([C@@H]2CC(=O)c3c(O)cc(O)cc3O2)cc1O = 0
C=CC(C)(C)c1ccc(O)c([C@@H]2CC(=O)c3c(O)cc(O)c(CC=C(C)C)c3O2)c1 = 82.1
CC(C)=CCc1cccc([C@@H]2CC(=O)c3c(O)cc4c(c3O2)C=CC(C)(C)O4)c1O = 6.4

Now for another entry.
Field inhibition (Tyrosinase (Agaricus bisporus) (UniProt O42713)), entry "CC1(C)C=Cc2c(cc(O)c3c2O[C@H](c2ccccc2)CC3=O)O1" : 16.2
